Each record here notes measured binding signal.
Measured target: T1, RBFOX1 RRM RbFoxmut (Fox-RRM*) (Homo sapiens, UniProt Q9NWB1 109-208, R118D;E147R;N151S;E152T)
T1 sequence: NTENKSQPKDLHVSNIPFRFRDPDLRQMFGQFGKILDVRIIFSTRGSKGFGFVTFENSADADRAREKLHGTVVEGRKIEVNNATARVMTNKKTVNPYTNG
Procedure details: EMSA; HiTS-Eq, 1 nM pool, 10 min; buffer printed only for the single-RNA assays: 10 mM Tris pH 7.5, 150 mM NaCl, 3.4 mM EDTA, 0.001% NP-40, 30 C
Measurement parameters: tags: His6 N-terminal (pET28a); label: 5' 32P
Over roughly 16,000 sequences, “ka relative to ugcaugu” has its median near 0.096; the highest 2% begin near 0.35. Shown is part of a subset that was picked to be rich in the highest values.

AGUGGCA (DNA:RNA) RNA: GGGAGACCGGAAUUCAGAUUGUCCAGUGGCAUUAAAUCCCGUCGUAGCCACCA DNA 1: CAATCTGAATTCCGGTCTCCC DNA 2: TGGTGGCTACGACGGGATT; 0.144 KA relative to UGCAUGU

Then this binder:
// returns reported binding signal for input AGUGAUA (DNA:RNA) RNA: GGGAGACCGGAAUUCAGAUUGUCCAGUGAUAUUAAAUCCCGUCGUAGCCACCA DNA 1: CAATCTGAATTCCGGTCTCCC DNA 2: TGGTGGCTACGACGGGATT
0.133 KA relative to UGCAUGU
